meta.source: PubChem BioAssay AID624288

Experimental Protocol: qHTS for Antagonists of gsp, the Etiologic Mutation Responsible for Fibrous Dysplasia/McCune-Albright Syndrome: qHTS; also: nearly all actives have a fitted effect of over 65% in size
Assay Conditions: gsp-mutant cells, cAMP HTRF, 30 min; series mostly up to 76.9 µM
In all, about 340,000 compounds went through this assay and about 1,400 (0.41%) were called active. About 4% were inconclusive and are not listed. Calls follow the shape of the full dose curve; cell line not stated here. The entries come from a sample that favours actives as a whole.
Form entry, call: pick from 1.0 (active), 0.0 (inactive)

Worked examples follow.
Name the outcome recorded for `O=C(CCc1ccccc1)Nc1ncc([N+](=O)[O-])s1` in the assay.
0.0

Name the outcome recorded for `O=C(Nc1ccccc1)c1ccccc1NC(=O)C(F)(F)F` in the assay.
1.0

Name the outcome recorded for `O=c1[nH]n(-c2ccc([N+](=O)[O-])cc2)c(=O)c2ccccc12` in the assay.
0.0

Name the outcome recorded for `Fc1ccc2[nH]c3c(N4CCSCC4)ncnc3c2c1` in the assay.
1.0

Name the outcome recorded for `CC(C)Cc1nnc(N)s1` in the assay.
0.0

Next:
Name the outcome recorded for `COc1ccc(NC(=O)C2=CC(c3ccc(OC)c(OC)c3)=NS(=O)(=O)N2C)cc1` in the assay.
1.0

Name the outcome recorded for `Cc1ccc(S(=O)(=O)N2CCN(C(=O)c3cc(S(=O)(=O)N4CCOCC4)ccc3F)CC2)cc1` in the assay.
0.0

Name the outcome recorded for `COc1ccc(CNC(=O)COC(=O)c2ccc(C)c(S(=O)(=O)N3CCOCC3)c2)cc1OC` in the assay.
0.0

Name the outcome recorded for `O=C(Nc1nc2ccccc2s1)c1ccc2c(c1)OCO2` in the assay.
0.0

Name the outcome recorded for CS(=O)(=O)c1ccc2nc(NC(=O)C3C4C=CC(C4)C3C(=O)O)sc2c1 (configuration not stated) in the assay.
0.0

Name the outcome recorded for O=C1/C(=C\c2ccc(O)cc2)CCC1CNc1ccc(Cl)cc1 (configuration not stated) in the assay.
0.0

Name the outcome recorded for FC(F)(F)c1ccc(-c2cccc3c2C2CC3CCN2Cc2ccccc2)cc1 (configuration not stated) in the assay.
0.0

Name the outcome recorded for `COc1cc(C(=O)N2CCN(S(=O)(=O)c3ccc(C(C)C)cc3)CC2)ccc1OCC(=O)N1CCOCC1` in the assay.
0.0

Name the outcome recorded for `O=C(Nc1nc(-c2ccc3c(c2)OCO3)cs1)c1ccncc1` in the assay.
1.0

Name the outcome recorded for `COc1cc(NC(=O)C2=CC(c3ccc(C)cc3)=NS(=O)(=O)N2C)cc(OC)c1OC` in the assay.
0.0

Name the outcome recorded for `CCOC(=O)c1ccccc1OC(=O)Oc1ccccc1C(=O)OCC` in the assay.
0.0

Name the outcome recorded for `CCOc1ccc2c(c1)C(c1ccc(C)cc1)=NNC(c1ccc(C)cc1)=N2` in the assay.
0.0

Name the outcome recorded for CC1CCCCC1NCC(=O)Nc1ccccc1C(=O)Nc1ccccc1 (configuration not stated) in the assay.
0.0

Name the outcome recorded for COc1ccc(OC)c2sc(NC(=O)C3COc4ccccc4O3)nc12 (configuration not stated) in the assay.
0.0

Name the outcome recorded for `Cc1ccc(-c2csc(-c3c[nH]c4ccccc34)n2)cc1` in the assay.
0.0

Name the outcome recorded for `Cc1ccc(S(=O)(=O)N2CCC(C(=O)N3CCCCCCC3)CC2)cc1` in the assay.
0.0

Name the outcome recorded for CC(=O)c1ccc(NC(=O)C(C)OC(=O)c2ccc(NS(=O)(=O)c3ccc4[nH]c(=O)[nH]c4c3)cc2)cc1 (configuration not stated) in the assay.
0.0

Name the outcome recorded for `CS(=O)(=O)c1ccc2nc(NC(=O)c3ccc(Cl)nc3)sc2c1` in the assay.
1.0
